Below, each of the compounds is paired with its reported IC50 value.
molecular target: c-Met kinase (recombinant c-Met) (Homo sapiens, UniProt P08581); construct: 0.27 nM recombinant c-Met; assay: In vitro kinase assay I (homogeneous time-resolved fluorescence tyrosine kinase assay)
Sequence (P08581 25-1390): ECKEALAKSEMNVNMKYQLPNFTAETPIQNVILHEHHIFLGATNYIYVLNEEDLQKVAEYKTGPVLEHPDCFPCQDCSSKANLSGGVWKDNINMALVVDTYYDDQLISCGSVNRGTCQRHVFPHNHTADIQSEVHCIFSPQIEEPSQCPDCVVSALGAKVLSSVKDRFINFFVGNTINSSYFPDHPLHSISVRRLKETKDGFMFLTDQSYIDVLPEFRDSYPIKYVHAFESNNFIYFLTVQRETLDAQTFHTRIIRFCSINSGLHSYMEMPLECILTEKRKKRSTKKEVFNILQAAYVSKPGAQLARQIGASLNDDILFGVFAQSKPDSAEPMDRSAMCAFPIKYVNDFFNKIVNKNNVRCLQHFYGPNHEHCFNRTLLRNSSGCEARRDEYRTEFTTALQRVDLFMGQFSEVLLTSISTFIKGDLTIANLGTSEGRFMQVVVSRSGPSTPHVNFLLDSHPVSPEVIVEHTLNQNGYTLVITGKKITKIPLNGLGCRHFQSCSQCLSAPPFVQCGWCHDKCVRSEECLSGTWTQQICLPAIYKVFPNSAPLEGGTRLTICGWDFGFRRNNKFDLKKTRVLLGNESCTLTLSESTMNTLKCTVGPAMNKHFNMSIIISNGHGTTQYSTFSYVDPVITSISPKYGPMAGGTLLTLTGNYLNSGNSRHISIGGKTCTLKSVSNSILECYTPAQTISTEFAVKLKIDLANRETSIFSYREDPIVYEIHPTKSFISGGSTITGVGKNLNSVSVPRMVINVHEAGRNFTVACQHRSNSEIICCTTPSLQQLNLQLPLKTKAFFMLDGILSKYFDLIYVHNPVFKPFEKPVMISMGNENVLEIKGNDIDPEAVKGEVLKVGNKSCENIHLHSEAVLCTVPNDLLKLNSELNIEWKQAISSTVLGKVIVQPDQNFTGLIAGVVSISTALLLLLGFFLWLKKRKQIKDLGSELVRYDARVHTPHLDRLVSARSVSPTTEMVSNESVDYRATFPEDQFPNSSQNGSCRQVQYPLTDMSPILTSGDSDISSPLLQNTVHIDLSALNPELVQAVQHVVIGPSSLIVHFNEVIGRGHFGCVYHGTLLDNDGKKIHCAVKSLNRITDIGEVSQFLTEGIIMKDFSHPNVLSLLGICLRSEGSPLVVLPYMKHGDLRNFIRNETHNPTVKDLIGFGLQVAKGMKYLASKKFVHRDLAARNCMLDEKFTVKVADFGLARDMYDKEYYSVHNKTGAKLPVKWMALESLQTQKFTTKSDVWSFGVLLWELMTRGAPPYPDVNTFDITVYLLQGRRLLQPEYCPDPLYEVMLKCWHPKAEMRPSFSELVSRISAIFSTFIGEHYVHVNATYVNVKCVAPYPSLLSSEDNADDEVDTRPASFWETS

>  <COMPOUND>
Cn1cc(-n2ccc(=O)c(Cc3cccc(-c4ncc(OCc5ccsn5)cn4)c3)n2)cn1

>  <IC50>
< 100 nM

$$$$
>  <COMPOUND>
CCCOC(=O)Nc1cccc(Cc2nn(-c3ccc(Br)cc3)ccc2=O)c1

>  <IC50>
< 100 nM

$$$$

Prompt: Bench note: what IC50 did "CCCOC(=O)Nc1cccc(Cc2nn(-c3cnn(CC4CCOCC4)c3)ccc2=O)c1" show?
Completion: 100 to 1000 nM

###

Reported IC50 values are given for each entry in this list.
molecular target: c-Met kinase (recombinant c-Met) (Homo sapiens, UniProt P08581); construct: 0.27 nM recombinant c-Met; assay: In vitro kinase assay I (homogeneous time-resolved fluorescence tyrosine kinase assay)

Prompt: Fill in: IC50 of "N#Cc1cccc(-n2ccc(=O)c(Cc3cccc(NC(=O)OCCn4cncn4)c3)n2)c1" is ___
Completion: < 100 nM

###

target: c-Met kinase (recombinant c-Met) (Homo sapiens, UniProt P08581); construct: 0.27 nM recombinant c-Met; experiment: In vitro kinase assay I (homogeneous time-resolved fluorescence tyrosine kinase assay)
PROPERTY LABEL: IC50

Worked cases, IC50 given:
>  <COMPOUND>
CCOc1cnc2ccc(Cc3nn(-c4cnn(CC)c4)ccc3=O)cc2c1

>  <REPORTED>
100 to 1000 nM

$$$$
>  <COMPOUND>
CCn1cc(-n2ccc(=O)c(Cc3cccc(-c4ncc(OC(C)C)cn4)c3)n2)cn1

>  <REPORTED>
< 100 nM

$$$$
>  <COMPOUND>
CC(c1cccc(-c2ncn(C)n2)c1)c1nn(-c2cnn(C)c2)ccc1=O (single isomer, unassigned) [Example 683]

>  <REPORTED>
< 100 nM

$$$$

Prompt: Given the entry "CC(C)COC(=O)Nc1cccc(Cc2nn(-c3cnn(CCCC(=O)N4CCCC4)c3)ccc2=O)c1" , what IC50 was observed with c-Met kinase (recombinant c-Met) (Homo sapiens, UniProt P08581)?
Completion: < 100 nM

###

molecular target: c-Met kinase (recombinant c-Met) (Homo sapiens, UniProt P08581); construct: 0.27 nM recombinant c-Met; assay: In vitro kinase assay I (homogeneous time-resolved fluorescence tyrosine kinase assay)
pIC50: −log10 of the molar value.
PROPERTY LABEL: pIC50

Prompt: Sample "Cn1cc(-n2ccc(=O)c(Cc3ccc4oc(=O)[nH]c4c3)n2)cn1" — what was its pIC50?
Completion: 5.52 to 6.00

Prompt: # repeat for "Cn1cc(-n2ccc(=O)c(Cc3cccc(NC(=O)OCCN4CCOCC4=O)c3)n2)cn1"
Completion: > 7.00

Prompt: Please give the result for "CCOc1ccc(-c2cccc(Cc3nn(-c4cnn(C)c4)ccc3=O)c2)nc1" too.
Completion: > 7.00

###

molecular target: c-Met kinase (recombinant c-Met) (Homo sapiens); construct: 0.27 nM recombinant c-Met; test: In vitro kinase assay I (homogeneous time-resolved fluorescence tyrosine kinase assay)
pIC50: −log10 of the molar value.
PROPERTY LABEL: pIC50

// below: answered compounds
>  <COMPOUND>
CCCn1cnc(-c2cccc(Cc3nn(-c4cccc(C(N)=O)c4)ccc3=O)c2)n1 [Example 735]

>  <MEASURED ON>
c-Met kinase (recombinant c-Met) (Homo sapiens)

>  <REPORTED>
6.00 to 7.00

$$$$
>  <COMPOUND>
CNC(=O)CCCn1cc(-n2ccc(=O)c(Cc3cccc(NC(=O)OCC(C)C)c3)n2)cn1 [Example 697]

>  <MEASURED ON>
c-Met kinase (recombinant c-Met) (Homo sapiens)

>  <REPORTED>
> 7.00

$$$$
>  <COMPOUND>
O=c1ccn(-c2ccc(F)c(F)c2)nc1Cc1cccc(-c2ncc(OC3CCOC3)cn2)c1 (racemic) [Example 327]

>  <MEASURED ON>
c-Met kinase (recombinant c-Met) (Homo sapiens)

>  <REPORTED>
> 7.00

$$$$
>  <COMPOUND>
CCOC(=O)Nc1cccc(Cc2nn(-c3cncc(F)c3)ccc2=O)c1 [Example 34]

>  <MEASURED ON>
c-Met kinase (recombinant c-Met) (Homo sapiens)

>  <REPORTED>
> 7.00

$$$$
>  <COMPOUND>
Cn1cc(-n2ccc(=O)c(Cc3cccc(-c4ncc(C(=O)NCC5CCCOC5)cn4)c3)n2)cn1 (racemic) [Example 478]

>  <MEASURED ON>
c-Met kinase (recombinant c-Met) (Homo sapiens)

>  <REPORTED>
> 7.00

$$$$

Prompt: What measured pIC50 goes with CCOC(=O)Nc1cccc(C(F)c2nn(-c3ccccc3)ccc2=O)c1 (racemic) [Example 640] ?
Completion: 6.00 to 7.00

Prompt: Then this compound: CC(C)COC(=O)Nc1cccc(Cc2nn(-c3cccc(-c4ccncc4)c3)ccc2=O)c1 [Example 730]
Completion: 6.00 to 7.00

###

target: c-Met kinase (recombinant c-Met) (Homo sapiens, UniProt P08581); construct: 0.27 nM recombinant c-Met; experiment: In vitro kinase assay I (homogeneous time-resolved fluorescence tyrosine kinase assay)
# IC50 listing for each entry below

Prompt: State its IC50 on c-Met kinase (recombinant c-Met) (Homo sapiens, UniProt P08581): "CCOc1cnc(-c2cccc(Cc3nn(-c4ccc(C#N)c(F)c4)ccc3=O)c2)nc1"
Completion: < 100 nM

Prompt: Please give the result for "Cn1cc(-n2ccc(=O)c(Cc3cccc(-c4ncc(C5CC5)cn4)c3)n2)cn1" too.
Completion: < 100 nM

Prompt: Request: "COC(=O)Nc1cccc(Cc2nn(-c3cnn(C)c3)ccc2=O)c1"
Completion: < 100 nM

Prompt: Also need "Cn1cc(-n2ccc(=O)c(Cc3cccc(-c4ncc(N5CCC(F)(F)C5)cn4)c3)n2)cn1" , thanks.
Completion: < 100 nM

Prompt: Cool, now Cn1cc(-n2ccc(=O)c(Cc3cccc(-c4ncc(OCC5COCCO5)cn4)c3)n2)cn1 (single isomer, unassigned) [Example 348]
Completion: < 100 nM

###

biological target: c-Met kinase (recombinant c-Met) (Homo sapiens); construct: 0.27 nM recombinant c-Met; assay: In vitro kinase assay I (homogeneous time-resolved fluorescence tyrosine kinase assay); assay type: biochemical
Each entry below carries its reported IC50.

Guide cases for IC50, answers given:
>  <COMPOUND>
[2H]C([2H])([2H])C([2H])([2H])Oc1cnc(-c2cccc(Cc3nn(-c4cnn(C)c4)ccc3=O)c2)nc1 [Example 275]

>  <IC50>
< 100 nM

$$$$
>  <COMPOUND>
CC(c1cccc(-c2ncc(O[C@@H]3CCNC[C@H]3F)cn2)c1)c1nn(-c2cnn(C)c2)ccc1=O (single isomer, unassigned) [Example 342]

>  <IC50>
< 100 nM

$$$$
>  <COMPOUND>
Cn1cc(-n2ccc(=O)c(Cc3cccc(NC(=O)NC4CC4)c3)n2)cn1 [Example 492]

>  <IC50>
100 to 1000 nM

$$$$

Prompt: What does the record list as IC50 for CCOc1cnc(-c2cccc(Cc3nn(-c4cncc(C#N)c4)ccc3=O)c2)nc1 [Example 136] ?
Completion: < 100 nM

###

target: c-Met kinase (recombinant c-Met) (Homo sapiens); construct: 0.27 nM recombinant c-Met; assay: In vitro kinase assay I (homogeneous time-resolved fluorescence tyrosine kinase assay)
PROPERTY LABEL: IC50

>  <COMPOUND>
CC(C)COC(=O)Nc1cccc(Cc2nn(-c3ccc(-c4cccnc4)cc3)ccc2=O)c1

>  <IC50>
< 0.1 µM

$$$$
>  <COMPOUND>
CCn1cc(-n2ccc(=O)c(Cc3cccc(-c4ncc(OCc5cc(C)no5)cn4)c3)n2)cn1

>  <IC50>
< 0.1 µM

$$$$
>  <COMPOUND>
COCCOc1cnc2ccc(Cc3nn(-c4cnn(C)c4)ccc3=O)cc2c1

>  <IC50>
0.1 to 1 µM

$$$$
>  <COMPOUND>
CCOC(=O)c1cccc(Cc2nn(-c3cnn(C)c3)ccc2=O)c1F

>  <IC50>
0.1 to 1 µM

$$$$
>  <COMPOUND>
CCCn1cnc(-c2cccc(Cc3nn(-c4cnn(CCO)c4)ccc3=O)c2)n1

>  <IC50>
< 0.1 µM

$$$$
>  <COMPOUND>
Cc1cc(COc2cnc(-c3cccc(Cc4nn(-c5cnn(C)c5)ccc4=O)c3)nc2)on1

>  <IC50>
< 0.1 µM

$$$$

Prompt: Enter reported IC50 observed with c-Met kinase (recombinant c-Met) (Homo sapiens) for "CCCOC(=O)Nc1cccc(Cc2nn(-c3ccncc3)ccc2=O)c1"
Completion: < 0.1 µM

Prompt: Param item: "COCCOc1cnc(-c2cccc(Cc3nn(-c4cncc(C#N)c4)ccc3=O)c2)nc1"
Completion: < 0.1 µM

Prompt: What about this compound? Cn1cc(-n2ccc(=O)c(C(F)c3ccc4ncccc4c3)n2)cn1 (racemic)
Completion: 1 to 3 µM

Prompt: For "O=C(Nc1cccc(Cc2nn(-c3cnn(CC(F)(F)F)c3)ccc2=O)c1)OCCN1CCOCC1" then?
Completion: < 0.1 µM
